Catalogue of Ratio IC50 values
# Assay Explanation: Selectivity ratio of IC50 for MMP8 to IC50 for MMP13

| Mol | Ratio IC50 |
| --- | --- |
| CNC(=O)[C@H](NC(=O)c1ccc(-c2cccc(CNC(=O)c3ccccn3)c2)o1)C1CCCCC1 | > 2400 |
| CNC(=O)[C@H](NC(=O)c1ccc(-c2cccc(CNC(=O)c3ccn(C)n3)c2)o1)C1CCCCC1 | > 820 |

Exam item: Would you mind telling me what Ratio IC50 value was observed for CNC(=O)[C@@H](NC(=O)c1ccc(-c2cccc(CNC(=O)c3ccnc(C(F)(F)F)n3)c2)o1)C(C)C ?
Marked response: > 2100

Exam item: Can you handle CNC(=O)[C@H](NC(=O)c1ccc(-c2cccc(CNC(=O)c3ccnc(C(F)(F)F)n3)c2)o1)C1CCCCC1 next?
Marked response: > 2800

Exam item: Can you handle CNC(=O)[C@H](NC(=O)c1ccc(-c2cccc(CNC(=O)c3cn4cccc(C)c4n3)c2)o1)C1CCCCC1 next?
Marked response: > 45

* * *

# Assay Explanation: Selectivity ratio of IC50 for MMP10 to IC50 for MMP13
Value Type: Ratio IC50
Answer with the value's number alone.

# example entries with known answers
| Mol | Ratio IC50 |
| --- | --- |
| CNC(=O)[C@@H](NC(=O)c1ccc(-c2cccc(CNC(=O)c3ccnc(C(F)(F)F)n3)c2)o1)C1CCOCC1 | 100 |
| CNC(=O)[C@H](NC(=O)c1ccc(-c2cccc(CNC(=O)c3ccccn3)c2)o1)C1CCCCC1 | 65 |
| CNC(=O)[C@H](NC(=O)c1ccc(-c2cccc(CNC(=O)c3occc3C)c2)o1)C1CCCCC1 | 17 |
| CNC(=O)[C@H](NC(=O)c1ccc(-c2cccc(CNC(=O)c3ccncc3)c2)o1)C1CCCCC1 | 4 |
| CNC(=O)[C@H](NC(=O)c1ccc(-c2cccc(CNC(C)=O)c2)o1)C1CCCCC1 | 0.5 |
| CNC(=O)[C@H](NC(=O)c1ccc(-c2cccc(CNC(=O)c3cc(C)n(C)n3)c2)o1)C1CCCCC1 | 19 |

Exam item: Would you mind telling me what Ratio IC50 value was observed for CNC(=O)[C@H](NC(=O)c1ccc(-c2cccc(CNC(=O)c3cccnc3)c2)o1)C1CCCCC1 ?
Marked response: 7

Exam item: Can you handle CNC(=O)[C@@H](NC(=O)c1ccc(-c2cccc(CNC(=O)c3ccnc(C(F)(F)F)n3)c2)o1)C1CC1 next?
Marked response: 170

* * *

# Assay Explanation: Selectivity ratio of IC50 for MMP10 to IC50 for MMP13
Value Type: Ratio IC50
Answer with the value's number alone.

# example entries with known answers
| Mol | Ratio IC50 |
| --- | --- |
| CNC(=O)[C@H](NC(=O)c1ccc(-c2cccc(CNC(=O)c3cccc(C)n3)c2)o1)C1CCCCC1 | 87 |
| CNC(=O)[C@@H](NC(=O)c1ccc(-c2cccc(CNC(=O)c3cccc(C(F)(F)F)n3)c2)o1)C(C)(C)O | 440 |
| CNC(=O)[C@@H](NC(=O)c1ccc(-c2cccc(CNC(=O)c3cccc(C(F)(F)F)n3)c2)o1)C1CCOCC1 | 130 |
| CNC(=O)[C@H](NC(=O)c1ccc(-c2cccc(CNC(=O)c3nccn3C)c2)o1)C1CCCCC1 | 9 |
| CNC(=O)[C@H](NC(=O)c1ccc(-c2cccc(CNC(=O)c3csc(C)n3)c2)o1)C1CCCCC1 | 7 |
| CNC(=O)[C@H](NC(=O)c1ccc(-c2cccc(CNC(=O)c3ccncn3)c2)o1)C1CCCCC1 | 9 |
| CNC(=O)[C@H](NC(=O)c1ccc(-c2cccc(CNC(=O)c3ccco3)c2)o1)C1CCCCC1 | 6 |

Exam item: Would you mind telling me what Ratio IC50 value was observed for CNC(=O)[C@H](NC(=O)c1ccc(-c2cccc(CNC(=O)c3cn4ccc(C)cc4n3)c2)o1)C1CCCCC1 ?
Marked response: 32
